B1: Osa-1-4 twister ribozyme (parent)
chain: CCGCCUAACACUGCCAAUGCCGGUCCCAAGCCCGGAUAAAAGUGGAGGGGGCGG

variants of: B1; test: self-cleavage, relative activity (ratio to wild type); higher = more cleavage; co-transcriptional
Would you kindly list self-cleavage for each of these variants?
The answer should be written as a number, with no unit following it.

Input `CCGCCUAACACUGCCAAUGCCGGUCUCAAGCCCGGAAAAAAGUGGAGGGGGCGG` . Output self-cleavage: 0.79

Field self-cleavage (entry `CCGCCUAACACUGCCAAUGCCGGUCACAGGCCCGGAUAAAAGUGGAGGGGGCGG` ) reads 0.04

So, `CCGCCUAACACUGCCAAUGCCGGUCCCAAGCCCGGAUAGAAGUGGCGGGGGCGG` ? Its self-cleavage was 0.05

// sample `CCGCCUAACACUGCCAAUGCCGGUCCGAAUCCCGGAUAAAAGUGGAGGGGGCGG` , its self-cleavage was 0.02

// sample `CCGCCUAAUACUGCCAAUGCCGGUCCCAAGCCCCGAUAAAAGUGGAGGGGGCGG` , its self-cleavage was 0.11

Form: variant = `CCGCCUAACACUGCCAAUGCCGGUCCCAAGCCGGGAUAAAAGUGGAGGGAGCGG` ; self-cleavage = 0.06

All figures here come from the RNAGym collection of RNA variant scans (doi:10.1002/anie.201605470).
